biological target: PCSK9 (Homo sapiens, UniProt Q8NBP7, G670E/V474I); assay: biochemical
Sequence (Q8NBP7 with tags, fused parts or gaps V474I/G670E): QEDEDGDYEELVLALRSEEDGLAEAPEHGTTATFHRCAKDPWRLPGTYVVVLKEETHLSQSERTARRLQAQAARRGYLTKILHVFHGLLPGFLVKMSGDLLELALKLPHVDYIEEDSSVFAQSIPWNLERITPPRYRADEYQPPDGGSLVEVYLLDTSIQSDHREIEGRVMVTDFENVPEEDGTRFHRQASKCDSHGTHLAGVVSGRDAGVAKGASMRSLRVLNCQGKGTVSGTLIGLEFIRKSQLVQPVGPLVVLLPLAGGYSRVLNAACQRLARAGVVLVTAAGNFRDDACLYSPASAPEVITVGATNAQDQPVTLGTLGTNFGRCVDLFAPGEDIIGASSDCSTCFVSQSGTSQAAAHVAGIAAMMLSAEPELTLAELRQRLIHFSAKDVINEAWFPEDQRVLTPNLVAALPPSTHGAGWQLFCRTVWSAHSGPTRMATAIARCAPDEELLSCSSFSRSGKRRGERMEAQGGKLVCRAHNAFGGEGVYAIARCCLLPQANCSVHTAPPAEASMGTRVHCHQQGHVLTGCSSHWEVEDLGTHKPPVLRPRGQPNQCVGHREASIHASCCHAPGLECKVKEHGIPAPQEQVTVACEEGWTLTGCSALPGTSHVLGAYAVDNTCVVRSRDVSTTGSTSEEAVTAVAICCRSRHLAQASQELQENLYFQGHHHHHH
pIC50: −log10 of the molar value.
Answer f if pIC50 is under 8, and t if it is 8 or more.

>>> df
                             compound_string  label_value
 0  COc1ccc(=O)n(-c2ccc(N[C@H]3CC[C@H](Nc4nc5cccnc5[nH]4)C3)nc2)c1            t
 1  O=c1ccccn1-c1ccc(N[C@H]2CC[C@H](Nc3nc4cc(CO)ccc4s3)C2)nc1            f
 2  Cn1ccc(=O)n(-c2ccc(N[C@H]3CC[C@H](Nc4nc5cccnc5s4)C3)nc2)c1=O            t
 3  O=c1ccccn1-c1ccc(N[C@H]2CC[C@H](Nc3nc4cccnc4[nH]3)C2)cc1            f
 4  O=c1ccccn1-c1ccc(N[C@H]2CC[C@H](Nc3nc4ccc(CO)cc4o3)C2)nc1            f
 5  O=c1c(OC(F)F)cccn1-c1ccc(N[C@H]2CC[C@H](Nc3nc4cccnc4s3)C2)nc1            t
 6  Cc1cccn(-c2ccc(N[C@H]3CC[C@H](Nc4nc5cccnc5s4)C3)nc2)c1=O            t
 7  O=c1ccc(OC(F)F)cn1-c1ccc(N[C@H]2CC[C@H](Nc3nc4cccnc4s3)C2)nc1            t
 8  O=C(O)c1ccc(=O)n(-c2ccc(N[C@H]3CC[C@H](Nc4nc5cccnc5[nH]4)C3)nc2)c1            t
 9  O=c1ccccn1-c1ccc(N[C@H]2CC[C@H](Nc3nc4ccccc4[nH]3)C2)nc1            f
10  O=c1cccnn1-c1cnc(N[C@H]2CC[C@H](Nc3nc4cccnc4[nH]3)C2)nc1            f
11  O=c1ccccn1-c1ccc(N[C@H]2CC[C@H](Nc3nc4cc(Br)cnc4[nH]3)C2)nc1            t
12  O=c1ccccn1-c1ccc(N[C@H]2CC[C@H](Nc3nc4cc(F)cnc4[nH]3)C2)nc1            t
13  CSc1cnc2[nH]c(N[C@H]3CC[C@H](Nc4ccc(-n5ccccc5=O)cn4)C3)nc2c1            t
14  O=c1c(Cl)cccn1-c1ccc(N[C@H]2CC[C@H](Nc3nc4cccnc4o3)C2)nc1            t
15  O=c1[nH]c2ccsc2c(=O)n1-c1ccc(N[C@H]2CC[C@H](Nc3nc4cccnc4s3)C2)nc1            t
16  COc1cnc2[nH]c(N[C@H]3CC[C@H](Nc4ccc(-n5ccccc5=O)cn4)C3)nc2c1            t
17  Cc1ncc(-c2ccc(=O)n(-c3ccc(N[C@H]4CC[C@H](Nc5nc6cc(Br)cnc6[nH]5)C4)nc3)c2)cn1            t
18  O=c1ccccn1-c1ccc(N[C@H]2CC[C@H](Nc3nc4ncccc4s3)C2)nc1            f
19  O=c1c(Cl)cccn1-c1ccc(N[C@H]2CC[C@H](Nc3nc4cccnc4s3)C2)nc1            t
20  Fc1ccccc1-c1ccc(N[C@H]2CC[C@H](Nc3nc4cccnc4[nH]3)C2)nc1            f
21  O=c1ccccn1-c1ccc(N[C@H]2CC[C@H](Nc3nc4cccnc4s3)C2)nc1            t
22  O=c1ccccn1-c1ccc(N[C@H]2CC[C@H](Nc3nc4c(Br)ccnc4[nH]3)C2)nc1            t
23  O=c1ccccn1-c1ccc(N[C@H]2CC[C@H](Nc3nc4cc(OC(F)F)cnc4[nH]3)C2)nc1            t
24  O=c1[nH]c2ccccc2n1-c1ccc(N[C@H]2CC[C@H](Nc3nc4cccnc4[nH]3)C2)nc1            t
